- STUDY TARGET: NaV 1.8 channel (Homo sapiens, UniProt Q9Y5Y9)
- Sequence (Q9Y5Y9 whole entry): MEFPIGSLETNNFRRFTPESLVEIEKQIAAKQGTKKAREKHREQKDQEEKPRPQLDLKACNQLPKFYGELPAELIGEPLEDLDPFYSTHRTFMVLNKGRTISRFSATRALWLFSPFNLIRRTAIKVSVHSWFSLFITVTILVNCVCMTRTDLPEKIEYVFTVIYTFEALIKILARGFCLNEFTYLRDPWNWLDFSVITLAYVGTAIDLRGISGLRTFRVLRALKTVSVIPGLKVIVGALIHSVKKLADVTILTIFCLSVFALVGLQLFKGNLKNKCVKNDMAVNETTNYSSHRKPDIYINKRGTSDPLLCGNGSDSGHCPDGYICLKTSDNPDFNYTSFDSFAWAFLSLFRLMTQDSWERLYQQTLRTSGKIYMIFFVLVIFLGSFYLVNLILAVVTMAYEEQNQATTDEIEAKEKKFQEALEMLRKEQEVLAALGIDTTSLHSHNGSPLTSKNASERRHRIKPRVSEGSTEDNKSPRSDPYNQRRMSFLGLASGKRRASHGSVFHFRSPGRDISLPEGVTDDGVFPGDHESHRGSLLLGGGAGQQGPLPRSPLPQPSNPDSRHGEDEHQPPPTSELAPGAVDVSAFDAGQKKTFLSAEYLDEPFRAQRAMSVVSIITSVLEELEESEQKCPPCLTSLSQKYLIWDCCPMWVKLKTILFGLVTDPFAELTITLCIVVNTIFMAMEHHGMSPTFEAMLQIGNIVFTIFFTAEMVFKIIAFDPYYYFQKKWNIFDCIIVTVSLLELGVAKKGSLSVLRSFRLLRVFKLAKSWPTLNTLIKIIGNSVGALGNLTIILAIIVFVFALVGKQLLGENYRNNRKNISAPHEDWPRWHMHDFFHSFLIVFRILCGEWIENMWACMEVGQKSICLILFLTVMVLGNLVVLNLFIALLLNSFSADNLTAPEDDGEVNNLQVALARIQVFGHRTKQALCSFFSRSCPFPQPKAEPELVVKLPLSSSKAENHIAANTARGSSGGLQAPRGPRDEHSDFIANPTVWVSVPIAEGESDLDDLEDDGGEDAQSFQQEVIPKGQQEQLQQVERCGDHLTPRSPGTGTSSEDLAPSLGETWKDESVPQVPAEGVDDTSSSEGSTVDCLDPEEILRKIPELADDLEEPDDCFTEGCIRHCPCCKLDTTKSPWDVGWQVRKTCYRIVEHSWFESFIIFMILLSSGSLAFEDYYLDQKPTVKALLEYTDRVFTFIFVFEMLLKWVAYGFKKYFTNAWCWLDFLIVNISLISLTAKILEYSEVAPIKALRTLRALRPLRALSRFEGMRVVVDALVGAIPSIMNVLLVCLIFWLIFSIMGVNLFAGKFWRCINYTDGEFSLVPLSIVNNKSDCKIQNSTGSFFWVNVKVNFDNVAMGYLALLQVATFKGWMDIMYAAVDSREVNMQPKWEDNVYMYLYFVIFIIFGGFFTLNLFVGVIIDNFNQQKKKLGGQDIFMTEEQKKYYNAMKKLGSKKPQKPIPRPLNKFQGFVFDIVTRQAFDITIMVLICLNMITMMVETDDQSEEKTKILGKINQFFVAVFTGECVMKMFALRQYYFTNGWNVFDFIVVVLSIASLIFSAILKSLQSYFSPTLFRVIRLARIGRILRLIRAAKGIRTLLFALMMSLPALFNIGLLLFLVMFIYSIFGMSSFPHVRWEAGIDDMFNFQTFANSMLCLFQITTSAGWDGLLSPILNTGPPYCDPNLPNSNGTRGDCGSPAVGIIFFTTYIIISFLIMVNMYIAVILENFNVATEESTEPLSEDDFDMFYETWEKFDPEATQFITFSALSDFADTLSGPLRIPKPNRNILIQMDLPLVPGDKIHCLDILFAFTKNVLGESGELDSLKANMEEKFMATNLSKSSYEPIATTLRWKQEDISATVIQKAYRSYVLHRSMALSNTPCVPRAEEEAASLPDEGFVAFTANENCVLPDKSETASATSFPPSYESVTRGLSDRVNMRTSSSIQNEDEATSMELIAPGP
- TEST DESCRIPTION: Activity against NaV 1.8 channel (optical membrane potential assay)
pIC50: −log10 of the molar value.
READOUT: pIC50

Completed entries (count: 3):
Cc1ccc2c(N3CC[C@@H](NC(=O)OCc4ccccc4)C3)nc(-c3ccccc3O)nc2c1 | > 5.70
Cc1ccc2c(N3CC[C@@H](NC(=O)c4cccnc4)C3)nc(-c3ccccc3O)nc2c1 | < 5.00
Cc1ccc2c(N3CCN(C(=O)[C@@H](O)C(C)(C)C)CC3)nc(-c3c(O)cccc3F)nc2c1 | < 5.00

Identify the reported pIC50 for the following entry. Cc1ccc2c(N3CC(C(=O)NCc4cccc(OC(F)(F)F)c4)C3)nc(-c3ccccc3O)nc2c1
< 5.00
